Tested on: HL-60(TB) leukemia
Experiment: NCI-60 one-dose screen, 48 h
Conditions: 10 µM unless noted
Description: Growth inhibition of the HL-60(TB) human tumor cell line is measured as a screen for anti-cancer activity. Cells are grown in 96 well plates and exposed to the test compound for 48 hours. Compounds are tested at a single concentration, which is 10^-5 M for most compounds. The reported endpoint is percent growth (GI% or GIPRCNT), where numbers from 0 - 100% represent growth inhibition, and numbers from -100% - 0 represent cell death. For example, a value of 40 represents 60% growth inhibition. […]
About 83,000 compounds went through this panel and 20% of them were active in at least one assay; those are over-represented in the sample as a whole. Calls of active or inactive are those of the source. How the source made its calls: active means growth percent below 10; inactive means the rest.
Classes used: YES = active, NO = inactive

compound=COC(=O)c1ccccc1Cl categorylabel=NO
compound=CC1=CC[C@@H]2C(C)(C)[C@@H](O)CC[C@@]2(C)[C@@H]1COc1ccc2ccc(=O)oc2c1 categorylabel=NO
compound="COC1/C=C/OC2(C)Oc3c(C)c(O)c4c(O)c(c(/C=N/Nc5ccc([N+](=O)[O-])cc5[N+](=O)[O-])c(O)c4c3C2=O)NC(=O)C(C)=C/C=C/C(C)C(O)C(C)C(O)C(C)C(OC(C)=O)C1C (centres undefined)" categorylabel=YES
compound=Cc1nc2ccc(-n3ncc(C(=O)c4cc5ccccc5[nH]4)c3N)cc2[nH]1 categorylabel=NO
compound=CCCCCCCCCCCCCCCCCCNC(=S)N/N=C/c1ccc(OC)c(OC)c1 categorylabel=NO
compound="N#CC1=C(/N=C/c2ccccc2)Oc2c(ccc3ccccc23)C1c1ccccc1 (centres undefined)" categorylabel=YES
compound=N#Cc1c(-c2ccc(C(F)(F)F)cc2)cc(N2CC(O)C2)n2c1nc1ccccc12 categorylabel=NO
compound=Cc1ccc2c(N/N=C\c3ccco3)cc(C)nc2n1 categorylabel=YES
compound="O=C(O)c1ccccc1C(=O)OC1CCCC2CCCC21 (centres undefined)" categorylabel=NO

Every entry's value here was drawn from PubChem BioAssay (NCI).
